method.summary: Dog cerebrospinal fluid (CSF) pharmacokinetic properties (Example 5)
Assay type: in vivo
measurement.context: male, beagle, CSF, 1 mg/kg PO, @ 8 h, read-out: CSF Conc.
endpoint.label: concentration at 8 h
Write the numeric value and follow it with the unit.

Recorded concentration at 8 h for `Fc1ccccc1Cc1nc(-c2nc(C(F)(F)F)n[nH]2)cn2ccnc12` , please?
2.4 nM

----------
method.summary: Non-human primate (NHP) CSF pharmacokinetic properties (Example 6)
Assay type: in vivo, Cynomolgus monkeys
measurement.context: male, CSF; Cynomolgus monkey, 0.3 mg/kg IV, @ 4 h; read-out: CSF Conc.
endpoint.label: concentration at 4 h (nM)
Give just the numeric value; nM need not be written.

Recorded concentration at 4 h for `Fc1ccccc1Cc1nc(-c2nc(C(F)(F)F)n[nH]2)cn2ccnc12` , please?
20

----------
method.summary: Dog cerebrospinal fluid (CSF) pharmacokinetic properties (Example 5)
Type: in vivo
measurement.context: male, beagle, CSF, 1 mg/kg PO, @ 1 h, read-out: CSF Conc.
Protocol: Protocol PK in dogs was determined following oral dosing. A group of 4 male beagle dogs were used and the dogs were dosed with 1 mg/kg of a compound formulated as a suspension in 1% HPMC E5, 0.2% Tween 80, and 0.5% MC in water. […] Plasma and CSF samples were collected as follows: samples of CSF and blood were collected at 1, 2, 4 and 8 hours post PO dosing. […] Plasma was collected and analyzed for the presence of a compound. Quantitation of Compounds. […]
endpoint.label: concentration at 1 h (nM)
Give just the numeric value; nM need not be written.

Recorded concentration at 1 h for `Fc1ccccc1Cc1nc(-c2nc(C(F)(F)F)n[nH]2)cn2ccnc12` , please?
34

----------
method.summary: Rat cerebrospinal fluid (CSF) pharmacokinetic properties (Example 4)
Format: in vivo
measurement.context: male, Sprague-Dawley, CSF, 1 mg/kg PO, @ 4 h, read-out: CSF Conc.
endpoint.label: concentration at 4 h (nM)
Give just the numeric value; nM need not be written.

Recorded concentration at 4 h for `Fc1ccccc1Cc1nc(-c2nc(C(F)(F)F)n[nH]2)cn2ccnc12` , please?
39

----------
method.summary: Rat cerebrospinal fluid (CSF) pharmacokinetic properties (Example 4)
Format: in vivo
measurement.context: male, Sprague-Dawley, CSF, 10 mg/kg PO, 1 h, read-out: CSF Conc. (nM @ 1 h)
Record form. Attribute: log10(concentration at 1 h). Fill in for each entry.
Answers are given as log10 of concentration at 1 h in nM.

Recorded log10(concentration at 1 h) for `Cc1ccc(Cc2nc(-c3nc(C(F)(F)F)n[nH]3)cn3ccnc23)cc1F` , please?
1.61

Recorded log10(concentration at 1 h) for `Fc1cccc(Cc2nc(-c3nc(C(F)(F)F)n[nH]3)cn3ccnc23)c1F` , please?
2.03

Recorded log10(concentration at 1 h) for `Fc1cccc(Cc2nc(-c3nc(C(F)F)n[nH]3)cn3ccnc23)c1F` , please?
1.86

Recorded log10(concentration at 1 h) for `Fc1ccccc1Cc1nc(-c2nc(C(F)F)n[nH]2)cn2ccnc12` , please?
2.45

Recorded log10(concentration at 1 h) for `Fc1ccccc1Cc1nc(-c2nc(C(F)(F)F)n[nH]2)cn2ccnc12` , please?
2.32

Recorded log10(concentration at 1 h) for `Fc1ccccc1Cc1nc(-c2nc(C(F)(F)F)n[nH]2)cn2ncnc12` , please?
2.43

Recorded log10(concentration at 1 h) for `Fc1cccc(Cc2nc(-c3nc(C(F)F)n[nH]3)cn3ccnc23)c1` , please?
0.78

Recorded log10(concentration at 1 h) for `Cc1ccc(Cc2nc(-c3nc(C(F)F)n[nH]3)cn3ccnc23)cc1F` , please?
1.30

Recorded log10(concentration at 1 h) for `Fc1cccc(Cc2nc(-c3nc(C(F)(F)F)n[nH]3)cn3ccnc23)c1` , please?
1.77

----------
method.summary: Dog cerebrospinal fluid (CSF) pharmacokinetic properties (Example 5)
Type: in vivo
measurement.context: male, beagle, CSF / unbound plasma, 1 mg/kg PO, @ 8 h
Procedure: Protocol PK in dogs was determined following oral dosing. A group of 4 male beagle dogs were used and the dogs were dosed with 1 mg/kg of a compound formulated as a suspension in 1% HPMC E5, 0.2% Tween 80, and 0.5% MC in water. […] Plasma and CSF samples were collected as follows: samples of CSF and blood were collected at 1, 2, 4 and 8 hours post PO dosing. […] Plasma was collected and analyzed for the presence of a compound. Quantitation of Compounds. […]
endpoint.label: Kp uu at 8 h

Recorded Kp uu at 8 h for `Fc1ccccc1Cc1nc(-c2nc(C(F)(F)F)n[nH]2)cn2ccnc12` , please?
0.4

----------
method.summary: Non-human primate (NHP) CSF pharmacokinetic properties (Example 6)
Type: in vivo, Cynomolgus monkeys
measurement.context: male, CSF; Cynomolgus monkey, 0.3 mg/kg IV, @ 24 h; read-out: CSF Conc.
endpoint.label: concentration at 24 h (nM)
Give just the numeric value; nM need not be written.

Recorded concentration at 24 h for `Fc1ccccc1Cc1nc(-c2nc(C(F)(F)F)n[nH]2)cn2ccnc12` , please?
6

----------
method.summary: Dog cerebrospinal fluid (CSF) pharmacokinetic properties (Example 5)
Assay type: in vivo
measurement.context: male, beagle, CSF / unbound plasma, 1 mg/kg PO, @ 4 h
endpoint.label: Kp uu at 4 h
Give your answer as a number; write no unit.

Recorded Kp uu at 4 h for `Fc1ccccc1Cc1nc(-c2nc(C(F)(F)F)n[nH]2)cn2ccnc12` , please?
0.7

----------
method.summary: Non-human primate (NHP) CSF pharmacokinetic properties (Example 6)
Type: in vivo, Cynomolgus monkeys
measurement.context: male, CSF / unbound plasma; Cynomolgus monkey, 0.3 mg/kg IV, @ 1 h
endpoint.label: Kp uu at 1 h
Give your answer as a number; write no unit.

Recorded Kp uu at 1 h for `Fc1ccccc1Cc1nc(-c2nc(C(F)(F)F)n[nH]2)cn2ccnc12` , please?
1.8

----------
method.summary: Rat cerebrospinal fluid (CSF) pharmacokinetic properties (Example 4)
Assay type: in vivo
measurement.context: male, Sprague-Dawley, CSF, 1 mg/kg PO, @ 1 h, read-out: CSF Conc.
endpoint.label: concentration at 1 h (nM)
Give just the numeric value; nM need not be written.

Recorded concentration at 1 h for `Fc1ccccc1Cc1nc(-c2nc(C(F)(F)F)n[nH]2)cn2ccnc12` , please?
21

----------
Record form. Attribute: EC50. Fill in for each entry.
assay.target: sGC enzyme (Homo sapiens, UniProt Q02108+Q02153)
Construct: sGC enzyme activity values in HEK cells, determined by the GloSensor assay; host or cells: HEK293 cells stably expressing GloSensor 40F cGMP biosensor
Sequence (Q02153 whole entry): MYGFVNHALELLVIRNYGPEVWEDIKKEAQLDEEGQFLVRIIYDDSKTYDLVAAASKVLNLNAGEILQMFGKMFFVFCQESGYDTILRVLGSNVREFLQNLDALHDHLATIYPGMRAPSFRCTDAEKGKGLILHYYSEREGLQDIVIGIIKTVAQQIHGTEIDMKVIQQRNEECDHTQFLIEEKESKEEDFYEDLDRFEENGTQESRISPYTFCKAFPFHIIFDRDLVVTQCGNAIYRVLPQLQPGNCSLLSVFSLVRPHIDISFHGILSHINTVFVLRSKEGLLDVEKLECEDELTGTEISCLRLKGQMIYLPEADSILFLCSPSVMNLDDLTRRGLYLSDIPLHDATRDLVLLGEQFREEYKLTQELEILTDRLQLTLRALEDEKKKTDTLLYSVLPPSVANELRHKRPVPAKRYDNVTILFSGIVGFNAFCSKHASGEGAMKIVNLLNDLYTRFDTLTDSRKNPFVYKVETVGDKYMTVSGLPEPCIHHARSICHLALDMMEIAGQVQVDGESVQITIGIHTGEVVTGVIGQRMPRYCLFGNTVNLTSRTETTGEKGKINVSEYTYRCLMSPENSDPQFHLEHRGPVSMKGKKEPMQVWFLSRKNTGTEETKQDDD
Sequence (Q02108 whole entry): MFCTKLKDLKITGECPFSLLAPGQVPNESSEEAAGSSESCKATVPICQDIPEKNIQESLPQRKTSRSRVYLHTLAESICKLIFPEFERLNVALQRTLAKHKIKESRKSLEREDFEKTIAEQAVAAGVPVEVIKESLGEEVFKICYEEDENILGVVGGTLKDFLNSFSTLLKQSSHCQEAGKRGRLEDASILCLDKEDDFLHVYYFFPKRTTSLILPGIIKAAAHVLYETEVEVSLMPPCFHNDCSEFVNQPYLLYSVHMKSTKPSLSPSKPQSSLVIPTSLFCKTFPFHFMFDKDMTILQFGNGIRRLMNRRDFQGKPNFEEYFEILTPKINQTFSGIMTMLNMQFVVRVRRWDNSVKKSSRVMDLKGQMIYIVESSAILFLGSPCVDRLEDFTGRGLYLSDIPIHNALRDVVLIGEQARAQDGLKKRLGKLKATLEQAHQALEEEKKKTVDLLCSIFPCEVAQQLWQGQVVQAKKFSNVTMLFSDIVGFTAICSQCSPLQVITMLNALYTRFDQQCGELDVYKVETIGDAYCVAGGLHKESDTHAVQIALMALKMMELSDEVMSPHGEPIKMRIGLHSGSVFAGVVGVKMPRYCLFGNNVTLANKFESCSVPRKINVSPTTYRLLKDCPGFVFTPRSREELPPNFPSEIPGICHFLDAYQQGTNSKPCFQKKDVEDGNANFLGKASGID
method.summary: cGMP GloSensor cell-based assay, 384-well format (Example 2a)
measurement.context: HEK293 GloSensor 40F cGMP cells; 10 μM DETA-NONOate; 50% of high control (30 μM Compound Y); read-out: Abs EC50

Recorded EC50 for `Fc1cccc(Cc2nc(-c3nc(C(F)F)n[nH]3)cn3ccnc23)c1F` , please?
100 to 1000 nM

Recorded EC50 for `FC(F)(F)c1n[nH]c(-c2cn3ccnc3c(CCC(F)(F)C(F)(F)F)n2)n1` , please?
> 1000 nM

Recorded EC50 for `Cc1nc(-c2cn3ccnc3c(Cc3ccccc3F)n2)nn1CC(F)(F)F` , please?
≤ 100 nM

Recorded EC50 for `FC(F)c1n[nH]c(-c2cn3ccnc3c(Cc3ccccc3)n2)n1` , please?
100 to 1000 nM

Recorded EC50 for `Fc1cc(F)cc(Cc2nc(-c3nc(C(F)(F)F)n[nH]3)cn3ncnc23)c1` , please?
≤ 100 nM

Recorded EC50 for `CCCCn1nc(-c2cn3ccnc3c(Cc3ccccc3F)n2)nc1C` , please?
≤ 100 nM

Recorded EC50 for `CN(C)c1n[nH]c(-c2cn3ccnc3c(Cc3ccccc3F)n2)n1` , please?
100 to 1000 nM

Recorded EC50 for `Fc1cccc(Cc2nc(-c3nc(C(F)(F)F)n[nH]3)cn3ccnc23)c1` , please?
≤ 100 nM

Recorded EC50 for `N#Cc1cnc2c(Cc3ccccc3F)nc(-c3nc(C(F)(F)F)n[nH]3)cn12` , please?
100 to 1000 nM

----------
method.summary: Rat cerebrospinal fluid (CSF) pharmacokinetic properties (Example 4)
Type: in vivo
measurement.context: male, Sprague-Dawley, CSF, 1 mg/kg PO, @ 2 h, read-out: CSF Conc.
endpoint.label: concentration at 2 h (nM)
Give just the numeric value; nM need not be written.

Recorded concentration at 2 h for `Fc1ccccc1Cc1nc(-c2nc(C(F)(F)F)n[nH]2)cn2ccnc12` , please?
35

----------
method.summary: Non-human primate (NHP) CSF pharmacokinetic properties (Example 6)
Type: in vivo, Cynomolgus monkeys
measurement.context: male, CSF / unbound plasma; Cynomolgus monkey, 1 mg/kg PO, @ 2 h
endpoint.label: Kp uu at 2 h

Recorded Kp uu at 2 h for `Fc1ccccc1Cc1nc(-c2nc(C(F)(F)F)n[nH]2)cn2ccnc12` , please?
1.8
